- measured_on: mGluR4 (UniProt Q14833)
- procedure_summary: mGluR4 potentiation assay (EC50 for potentiation at EC20 agonist; fluorometric plate reader, Ca2+ or thallium dye)
- measurement_setup: potentiation of mGluR4; species of receptor not given
Could you please mark 1 (yes) for values of EC50 below 1 µM and 0 (no) for values at or above it?

Example results:
| molecule | class_label |
| --- | --- |
| CCCCNC(c1noc2cc(Nc3n[nH]c4cccnc34)ccc12)C(F)(F)F (stereo not drawn) [Example 180] | 1 (yes) |
| O=C(Cc1noc2cc(Nc3n[nH]c4cccnc34)ccc12)N1CCOCC1 [Example 143] | 0 (no) |
| O=C(NC(c1noc2cc(Nc3n[nH]c4cccnc34)ccc12)C(F)(F)F)c1nccs1 (stereo not drawn) [Example 153] | 0 (no) |

Req: Lab log: compare recorded EC50 with 1 µM; is it strictly lower for CC(C)(C)Cc1noc2cc(Nc3n[nH]c4cccnc34)c(F)cc12 [Example 167] ?
Resp: 0 (no)

Req: Lab log: compare recorded EC50 with 1 µM; is it strictly lower for CC(C)(C)Cc1noc2cc(Nc3n[nH]c4ccccc34)ccc12 [Example 17] ?
Resp: 0 (no)

Req: Lab log: compare recorded EC50 with 1 µM; is it strictly lower for O=C(NC1CCC1)c1noc2cc(Nc3n[nH]c4cccnc34)ccc12 [Example 53] ?
Resp: 1 (yes)

Req: Lab log: compare recorded EC50 with 1 µM; is it strictly lower for CC(C)(C)Cc1noc2c(F)c(Nc3n[nH]c4nccnc34)ccc12 [Example 164] ?
Resp: 0 (no)

Req: Lab log: compare recorded EC50 with 1 µM; is it strictly lower for CC(C)Cc1noc2cc(Nc3n[nH]c4nccnc34)ccc12 [Example 13] ?
Resp: 1 (yes)

Req: Lab log: compare recorded EC50 with 1 µM; is it strictly lower for CC1CN(c2noc3cc(Nc4n[nH]c5cccnc45)ccc23)CC(C)O1 (stereo not drawn) [Example 28] ?
Resp: 0 (no)

Data origin, for the record: patent US9980945B2
